- TESTED_ON: Glutamate carboxypeptidase 2 (Homo sapiens)
- Sequence (Q04609 whole entry, looked up): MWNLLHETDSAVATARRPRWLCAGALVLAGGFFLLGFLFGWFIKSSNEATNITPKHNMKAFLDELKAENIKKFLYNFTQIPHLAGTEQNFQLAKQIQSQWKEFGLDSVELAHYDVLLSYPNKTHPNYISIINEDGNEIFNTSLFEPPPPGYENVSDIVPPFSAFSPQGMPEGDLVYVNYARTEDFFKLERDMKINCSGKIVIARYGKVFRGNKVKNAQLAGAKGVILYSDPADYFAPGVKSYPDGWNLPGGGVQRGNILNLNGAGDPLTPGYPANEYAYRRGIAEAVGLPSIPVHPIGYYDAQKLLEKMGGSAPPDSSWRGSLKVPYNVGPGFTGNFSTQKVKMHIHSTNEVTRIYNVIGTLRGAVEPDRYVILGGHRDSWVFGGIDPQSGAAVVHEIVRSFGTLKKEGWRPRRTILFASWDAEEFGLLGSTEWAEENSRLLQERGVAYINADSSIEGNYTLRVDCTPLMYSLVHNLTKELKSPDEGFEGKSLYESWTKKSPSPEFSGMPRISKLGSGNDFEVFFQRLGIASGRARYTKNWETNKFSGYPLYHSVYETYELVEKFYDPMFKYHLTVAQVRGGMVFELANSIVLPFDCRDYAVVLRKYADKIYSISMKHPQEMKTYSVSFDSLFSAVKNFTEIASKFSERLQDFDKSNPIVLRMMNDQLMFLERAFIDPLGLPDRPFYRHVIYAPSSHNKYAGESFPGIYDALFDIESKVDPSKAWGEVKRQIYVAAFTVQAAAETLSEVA
- EXPERIMENTAL_PROTOCOL: Inhibition of PSMA in human LNCaP cells assessed as cell surface binding per 10^6 cells using 177Lu-labeled compound after 45 mins by gamma counting analysis
- Assay type: cell-based
MEASURE: specific cell surface binding (% of applied activity per 10^6 cells) (%)

Below, each entry is followed by its recorded specific cell surface binding (% of applied activity per 10^6 cells) result.
1. O=C(O)CC[C@H](NC(=O)N[C@@H](CCCCNC(=O)[C@H]1CC[C@H](CNC(=O)[C@H]2CC[C@H](CNC(=O)CN3CCN(CC(=O)O)CCN(CC(=O)O)CCN(CC(=O)O)CC3)CC2)CC1)C(=O)O)C(=O)O: 3.88
2. O=C(O)CC[C@H](NC(=O)N[C@@H](CCCCNC(=O)[C@H](Cc1ccc2ccccc2c1)NC(=O)CN1CCN(CC(=O)O)CCN(CC(=O)O)CCN(CC(=O)O)CC1)C(=O)O)C(=O)O: 1.68
3. O=C(O)CC[C@H](NC(=O)N[C@@H](CCCCNC(=O)[C@H]1CC[C@H](CNC(=O)c2ccc(CNC(=O)CN3CCN(CC(=O)O)CCN(CC(=O)O)CCN(CC(=O)O)CC3)cc2)CC1)C(=O)O)C(=O)O: 4.49

(A) O=C(O)CC[C@H](NC(=O)N[C@@H](CCCCNC(=O)[C@H]1CC[C@H](CNC(=O)CN2CCN(CC(=O)O)CCN(CC(=O)O)CCN(CC(=O)O)CC2)CC1)C(=O)O)C(=O)O
(B) O=C(O)CC[C@H](NC(=O)N[C@@H](CCCCNC(=O)c1ccc(CNC(=O)c2ccc(CNC(=O)c3ccc(CNC(=O)CN4CCN(CC(=O)O)CCN(CC(=O)O)CCN(CC(=O)O)CC4)cc3)cc2)cc1)C(=O)O)C(=O)O
input: Smaller specific cell surface binding (% of applied activity per 10^6 cells) value? Options are A and B Lab log: write the label of the selected item as the result.
output: A
(A: 4.14%, B: 21.4%)

---

- EXPERIMENTAL_PROTOCOL: Retention time of the compound by HPLC
- Type: physicochemical
MEASURE: Retention_time (min)

1) O=C(O)CC[C@H](NC(=O)N[C@@H](CCCCNC(=O)[C@H]1CC[C@H](CNC(=O)[C@H]2CC[C@H](CNC(=O)[C@H]3CC[C@H](CNC(=O)CN4CCN(CC(=O)O)CCN(CC(=O)O)CCN(CC(=O)O)CC4)CC3)CC2)CC1)C(=O)O)C(=O)O: 2.28
2) O=C(O)CC[C@H](NC(=O)N[C@@H](CCCCNC(=O)c1ccc(CNC(=O)[C@H](Cc2ccc3ccccc3c2)NC(=O)[C@H]2CC[C@H](CNC(=O)CN3CCN(CC(=O)O)CCN(CC(=O)O)CCN(CC(=O)O)CC3)CC2)cc1)C(=O)O)C(=O)O: 2.7
3) O=C(O)CCc1ccc(O)c(CN(CCN(CC(=O)O)Cc2cc(CCC(=O)NCCCCCC(=O)NCCCC[C@H](NC(=O)N[C@@H](CCC(=O)O)C(=O)O)C(=O)O)ccc2O)CC(=O)O)c1 [GOZETOTIDE]: 1.69
4) O=C(O)CC[C@H](NC(=O)N[C@@H](CCCCNC(=O)[C@H](Cc1ccc(-c2ccccc2)cc1)NC(=O)CN1CCN(CC(=O)O)CCN(CC(=O)O)CCN(CC(=O)O)CC1)C(=O)O)C(=O)O: 2.59
5) O=C(O)CC[C@H](NC(=O)N[C@@H](CCCCNC(=O)c1ccc(CNC(=O)c2ccc(CNC(=O)c3ccc(CNC(=O)c4ccc(CNC(=O)CN5CCN(CC(=O)O)CCN(CC(=O)O)CCN(CC(=O)O)CC5)cc4)cc3)cc2)cc1)C(=O)O)C(=O)O: 2.44
6) O=C(O)CC[C@H](NC(=O)N[C@@H](CCCCNC(=O)[C@H](Cc1ccc2ccccc2c1)NC(=O)[C@H]1CC[C@H](CNC(=O)CN2CCN(CC(=O)O)CCN(CC(=O)O)CCN(CC(=O)O)CC2)CC1)C(=O)O)C(=O)O [VIPIVOTIDE TETRAXETAN]: 2.63
7) O=C(O)CC[C@H](NC(=O)N[C@@H](CCCCNC(=O)c1ccc(CNC(=O)CN2CCN(CC(=O)O)CCN(CC(=O)O)CCN(CC(=O)O)CC2)cc1)C(=O)O)C(=O)O: 1.56
8) O=C(O)CC[C@H](NC(=O)N[C@@H](CCCCNC(=O)[C@H]1CC[C@H](CNC(=O)CN2CCN(CC(=O)O)CCN(CC(=O)O)CCN(CC(=O)O)CC2)CC1)C(=O)O)C(=O)O: 1.81
9) O=C(O)CC[C@H](NC(=O)N[C@@H](CCCCNC(=O)[C@H](Cc1ccc2ccccc2c1)NC(=O)c1ccc(CNC(=O)CN2CCN(CC(=O)O)CCN(CC(=O)O)CCN(CC(=O)O)CC2)cc1)C(=O)O)C(=O)O: 2.32
10) O=C(O)CC[C@H](NC(=O)N[C@@H](CCCCNC(=O)[C@H](Cc1cccc2ccccc12)NC(=O)[C@H]1CC[C@H](CNC(=O)CN2CCN(CC(=O)O)CCN(CC(=O)O)CCN(CC(=O)O)CC2)CC1)C(=O)O)C(=O)O: 2.59
11) O=C(O)CC[C@H](NC(=O)N[C@@H](CCCCNC(=O)[C@H]1CC[C@H](CNC(=O)[C@H](Cc2ccc3ccccc3c2)NC(=O)CN2CCN(CC(=O)O)CCN(CC(=O)O)CCN(CC(=O)O)CC2)CC1)C(=O)O)C(=O)O: 2.48
12) O=C(O)CC[C@H](NC(=O)N[C@@H](CCCCNC(=O)CCCCCNC(=O)c1ccc(CNC(=O)CN2CCN(CC(=O)O)CCN(CC(=O)O)CCN(CC(=O)O)CC2)cc1)C(=O)O)C(=O)O: 1.74
13) O=C(O)CC[C@H](NC(=O)N[C@@H](CCCCNC(=O)c1ccc(CNC(=O)c2ccc(CNC(=O)CN3CCN(CC(=O)O)CCN(CC(=O)O)CCN(CC(=O)O)CC3)cc2)cc1)C(=O)O)C(=O)O: 1.78
14) O=C(O)CC[C@H](NC(=O)N[C@@H](CCCCNC(=O)c1ccc(CNC(=O)c2ccc(CNC(=O)c3ccc(CNC(=O)CN4CCN(CC(=O)O)CCN(CC(=O)O)CCN(CC(=O)O)CC4)cc3)cc2)cc1)C(=O)O)C(=O)O: 1.95
15) O=C(O)CC[C@H](NC(=O)N[C@@H](CCCCNC(=O)[C@H]1CC[C@H](CNC(=O)c2ccc(CNC(=O)CN3CCN(CC(=O)O)CCN(CC(=O)O)CCN(CC(=O)O)CC3)cc2)CC1)C(=O)O)C(=O)O: 2.07
16) O=C(O)CC[C@H](NC(=O)N[C@@H](CCCCNC(=O)[C@H]1CC[C@H](CNC(=O)[C@H]2CC[C@H](CNC(=O)CN3CCN(CC(=O)O)CCN(CC(=O)O)CCN(CC(=O)O)CC3)CC2)CC1)C(=O)O)C(=O)O: 2.08

---

- TESTED_ON: UniProt Q04609
- EXPERIMENTAL_PROTOCOL: Inhibition of PSMA in human LNCaP cells assessed as specific internalization per 10^6 cells using 177Lu-labeled compound after 45 mins by gamma counting analysis
- Format: cell-based
MEASURE: specific internalization (% of added activity per 10^6 cells) (%)

(1) O=C(O)CC[C@H](NC(=O)N[C@@H](CCCCNC(=O)[C@H]1CC[C@H](CNC(=O)[C@H](Cc2ccc3ccccc3c2)NC(=O)CN2CCN(CC(=O)O)CCN(CC(=O)O)CCN(CC(=O)O)CC2)CC1)C(=O)O)C(=O)O
(2) O=C(O)CC[C@H](NC(=O)N[C@@H](CCCCNC(=O)[C@H]1CC[C@H](CNC(=O)CN2CCN(CC(=O)O)CCN(CC(=O)O)CCN(CC(=O)O)CC2)CC1)C(=O)O)C(=O)O
(3) O=C(O)CC[C@H](NC(=O)N[C@@H](CCCCNC(=O)c1ccc(CNC(=O)c2ccc(CNC(=O)c3ccc(CNC(=O)c4ccc(CNC(=O)CN5CCN(CC(=O)O)CCN(CC(=O)O)CCN(CC(=O)O)CC5)cc4)cc3)cc2)cc1)C(=O)O)C(=O)O
(4) O=C(O)CC[C@H](NC(=O)N[C@@H](CCCCNC(=O)[C@H](Cc1ccc2ccccc2c1)NC(=O)[C@H]1CC[C@H](CNC(=O)CN2CCN(CC(=O)O)CCN(CC(=O)O)CCN(CC(=O)O)CC2)CC1)C(=O)O)C(=O)O [VIPIVOTIDE TETRAXETAN]
(5) O=C(O)CC[C@H](NC(=O)N[C@@H](CCCCNC(=O)c1ccc(CNC(=O)c2ccc(CNC(=O)CN3CCN(CC(=O)O)CCN(CC(=O)O)CCN(CC(=O)O)CC3)cc2)cc1)C(=O)O)C(=O)O
input: Please order the records by their reported specific internalization (% of added activity per 10^6 cells), lowest number first. Lab note: record answer as labels in requested order.
output: 1, 2, 5, 3, 4

Reference for the values: ChEMBL document CHEMBL5252516
